IC50, Arginase-1 (Homo sapiens (Human)), per-entry values.
Counter-ions that a name gives are not always drawn.

For the 3 compounds below, give their IC50 values.
1. C[C@H](N)C(=O)N1CC[C@H]2[C@@H]1CN[C@@]2(CCCCB(O)O)C(=O)O [Example 2, dihydrochloride]
2. N[C@@H](Cc1ccccc1)C(=O)N1CC[C@H]2[C@@H]1CN[C@@]2(CCCCB(O)O)C(=O)O [Example 3, dihydrochloride]
3. C[C@H](O)[C@@H](N)C(=O)N1CC[C@H]2[C@@H]1CN[C@@]2(CCCCB(O)O)C(=O)O [Example 5, dihydrochloride]

100 to 1000 nM
100 to 1000 nM
100 to 1000 nM

Record CN1CC[C@H]2[C@@H]1CN[C@@]2(CCCCB(O)O)C(=O)O [Example 27, hydrochloride] : what is its IC50 with Arginase-1 (Homo sapiens (Human))?
< 100 nM
